# Tested on: Rabbit Skeletal myofibrils (rabbit psoas muscle)
# measurement_notes: Myofibril ATPase assay (PK/LDH NADH-coupled), skeletal myofibrils
# Assay type: biochemical
# condition: Table 8
// boundary case: Rabbit Psoas IC25 equal to 0.05 µM maps to 0; strictly smaller maps to 1

>>> print(df.to_string())
                           structure_smiles  discrete_label
0  C[C@H](NC(=O)CN1Cc2cc(F)ccc2NC1=O)c1ccc(C#N)cc1               0
1  Cc1cc(F)cc2c1NC(=O)N(CC(=O)N[C@H](C)c1ccc(C#N)cc1F)C2               0
2  C[C@@H](NC(=O)CN1Cc2c(ccc(F)c2F)NC1=O)c1ncncc1F               0
3  C[C@H](NC(=O)CN1Cc2ccccc2NC1=O)c1ccc(F)cc1F               1
4  C[C@H](NC(=O)CN1Cc2c(ccc(F)c2F)NC1=O)c1c(F)cncc1F               0
5  C[C@H](NC(=O)CN1Cc2c(ccc(F)c2F)NC1=O)c1ccc2cnccc2n1               0
6  N#Cc1c(F)ccc2c1CN(CC(=O)N[C@@H](CO)c1ccc(F)cc1F)C(=O)N2               1

---

Listed compounds paired with reported Rabbit Psoas IC25
# Test system: Rabbit Skeletal myofibrils (rabbit psoas muscle)
# measurement_notes: Myofibril ATPase assay (PK/LDH NADH-coupled), skeletal myofibrils
# Type: biochemical
# condition: Table 8
metric: Rabbit Psoas IC25 (nM)

In [3]: df
Out[3]:
                            structure_smiles             metric  recorded_value
 0  N#Cc1cnc2c(c1)OC[C@H]2NC(=O)CN1C(=O)Nc2ccc(F)c(F)c2C12CC2  Rabbit Psoas IC25             230
 1  Cc1ncnc([C@@H](C)NC(=O)CN2Cc3c(ccc(F)c3F)NC2=O)c1F  Rabbit Psoas IC25          100000
 2  CNC(=O)N1CC2(C1)c1cc(F)ccc1NC(=O)N2CC(=O)N[C@@H](C)c1ncc(C#N)cc1F  Rabbit Psoas IC25          100000
 3  Cc1cccnc1[C@H](C)NC(=O)CN1Cc2c(ccc(F)c2F)NC1=O  Rabbit Psoas IC25          100000
 4  CC(=O)N1CC2(C1)c1cc(F)ccc1NC(=O)N2CC(=O)N[C@@H](C)c1ncc(C#N)cc1F  Rabbit Psoas IC25           39410
 5  C[C@H](NC(=O)CN1Cc2cc(F)c(F)cc2NC1=O)c1ncc(C#N)cc1F  Rabbit Psoas IC25             130
 6  N#Cc1cnc2c(c1)CC[C@@H]2NC(=O)CN1Cc2c(ccc(F)c2F)NC1=O  Rabbit Psoas IC25          100000
 7  Cc1cccc2c1C1(CC1)N(CC(=O)N[C@H]1COc3cc(C#N)cnc31)C(=O)N2  Rabbit Psoas IC25            1390
 8  C[C@H](NC(=O)CN1Cc2cc(F)cc(C#N)c2NC1=O)c1ccc(C#N)cc1F  Rabbit Psoas IC25           542.2
 9  C[C@H](NC(=O)CN1Cc2c(ccc(F)c2F)NC1=O)c1ccc(C#N)cc1F  Rabbit Psoas IC25           18.79
10  N#Cc1cnc2c(c1)CC[C@@H]2NC(=O)CN1C(=O)Nc2ccc(F)cc2C12CC2  Rabbit Psoas IC25             170
11  C[C@@H](C(=O)N[C@@H](CO)c1ncc(F)cc1F)N1Cc2c(Cl)cccc2NC1=O  Rabbit Psoas IC25           395.5
12  O=C(CN1Cc2c(ccc(F)c2F)NC1=O)N[C@@H]1COCc2cc(F)cnc21  Rabbit Psoas IC25             520
13  Cc1ccc2c(c1F)CN(CC(=O)N[C@@H](C)c1ccc(C#N)cc1F)C(=O)N2  Rabbit Psoas IC25              10
14  C[C@H](NC(=O)CN1Cc2c(ccc(F)c2F)NC1=O)c1nnc(-c2ccccc2F)s1  Rabbit Psoas IC25           21880
15  Cc1cc(F)c2c(c1)NC(=O)N(CC(=O)N[C@@H](C)c1ccc(C#N)cc1F)C2  Rabbit Psoas IC25            13.2
16  O=C(CN1Cc2c(ccc(F)c2F)NC1=O)N[C@@H]1CCc2cc(F)cnc21  Rabbit Psoas IC25             620
17  Cc1nc(C#N)cnc1[C@H](C)NC(=O)CN1C(=O)Nc2ccc(F)cc2C12CC2  Rabbit Psoas IC25          100000
18  C[C@H](NC(=O)CN1C(=O)Nc2ccc(F)cc2C12CC2)c1cnc(C#N)cn1  Rabbit Psoas IC25          100000
19  C[C@@H](NC(=O)CN1Cc2c(F)cc(Cl)cc2NC1=O)c1ccc(C#N)cc1F  Rabbit Psoas IC25            1003
20  C[C@H](NC(=O)[C@@H](C)N1Cc2c(ccc(F)c2F)NC1=O)c1ncc(C#N)cc1F  Rabbit Psoas IC25             570
21  C[C@H]1c2ccccc2NC(=O)N1CC(=O)N[C@@H](CO)c1ncc(F)cc1F  Rabbit Psoas IC25            6966
22  COc1cccnc1[C@H](C)NC(=O)CN1Cc2c(ccc(F)c2F)NC1=O  Rabbit Psoas IC25          100000
23  COc1cccnc1[C@@H](C)NC(=O)CN1Cc2c(ccc(F)c2F)NC1=O  Rabbit Psoas IC25          100000
24  C[C@H](NC(=O)CN1Cc2cc(C#N)ccc2NC1=O)c1ncc(C#N)cc1F  Rabbit Psoas IC25            2787
25  Cc1nc(C#N)ncc1[C@@H](C)NC(=O)CN1Cc2c(ccc(F)c2F)NC1=O  Rabbit Psoas IC25            20.1
26  C[C@@H](NC(=O)CN1Cc2c(C#N)cccc2NC1=O)c1ncc(F)cc1F  Rabbit Psoas IC25           516.1
27  CC(C)C[C@@H](C(=O)N[C@@H](C)c1ccc(F)cc1F)N1Cc2c(ccc(F)c2F)NC1=O  Rabbit Psoas IC25            2769
28  CC(C)C[C@@H](C(=O)N[C@@H](C)c1ccc(F)cc1F)N1Cc2cc(F)ccc2NC1=O  Rabbit Psoas IC25          100000
29  O=C(CN1Cc2cc(F)ccc2NC1=O)N[C@@H]1COc2cc(F)cc(F)c21  Rabbit Psoas IC25            11.6
30  N#Cc1cc(F)c2c(c1)OC[C@@H]2NC(=O)CN1C(=O)Nc2ccc(F)c(F)c2C12CC2  Rabbit Psoas IC25             330
31  C[C@@H](NC(=O)CN1C(=O)Nc2ccc(F)c(F)c2C12CC2)c1ncc(C#N)cc1F  Rabbit Psoas IC25             630

Origin of values: patent US12509431B2
